TESTED ON: Full-length (FL)-PRMT5-MEP50 enzyme complex (Homo sapiens)
Construct: Full-length (FL)-PRMT5-MEP50 enzyme complex (recombinant proteins from baculovirus-transfected Sf21 cells: FL-PRMT5; MW=73837 kDa and FL-MEP50; MW=38614); made in house; host or cells: baculovirus-transfected Sf21 insect cells
Sequence (O14744 whole entry): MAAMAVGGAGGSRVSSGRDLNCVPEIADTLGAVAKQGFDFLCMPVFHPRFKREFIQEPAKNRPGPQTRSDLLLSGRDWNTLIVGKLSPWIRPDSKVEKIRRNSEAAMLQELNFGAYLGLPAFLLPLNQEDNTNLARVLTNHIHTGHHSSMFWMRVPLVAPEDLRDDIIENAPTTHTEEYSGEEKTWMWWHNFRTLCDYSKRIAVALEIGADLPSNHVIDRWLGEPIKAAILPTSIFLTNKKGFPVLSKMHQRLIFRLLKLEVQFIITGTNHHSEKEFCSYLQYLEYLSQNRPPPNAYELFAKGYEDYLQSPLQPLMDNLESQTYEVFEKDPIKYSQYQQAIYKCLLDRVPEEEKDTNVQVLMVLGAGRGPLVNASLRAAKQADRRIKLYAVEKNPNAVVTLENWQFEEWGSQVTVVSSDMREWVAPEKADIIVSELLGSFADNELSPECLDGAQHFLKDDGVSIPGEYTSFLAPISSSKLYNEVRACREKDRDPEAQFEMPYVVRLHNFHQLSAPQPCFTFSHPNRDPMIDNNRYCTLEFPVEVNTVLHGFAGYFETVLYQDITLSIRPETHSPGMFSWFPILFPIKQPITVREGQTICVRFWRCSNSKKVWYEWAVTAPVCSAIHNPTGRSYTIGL
Sequence (Q9BQA1 whole entry partner): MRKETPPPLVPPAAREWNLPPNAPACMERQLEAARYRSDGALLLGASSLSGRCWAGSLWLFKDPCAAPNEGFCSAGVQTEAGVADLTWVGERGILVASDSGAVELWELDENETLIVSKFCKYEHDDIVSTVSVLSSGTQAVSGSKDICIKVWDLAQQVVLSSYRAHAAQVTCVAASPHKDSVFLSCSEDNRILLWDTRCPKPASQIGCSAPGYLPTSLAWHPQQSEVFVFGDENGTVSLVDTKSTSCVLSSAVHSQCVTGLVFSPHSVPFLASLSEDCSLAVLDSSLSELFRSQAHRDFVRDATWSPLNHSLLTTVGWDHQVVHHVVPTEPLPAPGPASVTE
TEST METHOD NOTES: PRMT5-MEP50 Enzyme Methylation Assay
Format: biochemical
CONDITION CONTEXT: one EC50: 4 parameters single site sigmoidal model; EC50 1: first value of 7 parameters biphasic model; 1.0 nM PRMT5-MEP50, 75 nM biotinylated peptide, 15 μM SAM; read-out: Enzyme Methylation Assay (EC50 or EC50 1)

>  <COMPOUND>
CNc1ncnc2c1ccn2[C@@H]1O[C@@H]2[C@H](Cc3ccc4cc(Br)c(N)nc4c3)CC[C@]2(O)[C@H]1O

>  <TESTED ON>
Full-length (FL)-PRMT5-MEP50 enzyme complex (Homo sapiens)

>  <MEASUREMENT UNIT>
nM

>  <EC50>
0.5

$$$$
>  <COMPOUND>
Nc1nc2cc(C[C@@H]3CC[C@@]4(O)[C@@H]3O[C@@H](n3ccc5c(N)ncnc53)[C@@H]4O)cc(F)c2cc1Cl

>  <TESTED ON>
Full-length (FL)-PRMT5-MEP50 enzyme complex (Homo sapiens)

>  <MEASUREMENT UNIT>
nM

>  <EC50>
0.8

$$$$
>  <COMPOUND>
Nc1nc2cc(C[C@@H]3CC[C@@]4(O)[C@@H]3C[C@@H](n3cc(F)c5c(N)ncnc53)[C@@H]4O)ccc2cc1Br

>  <TESTED ON>
Full-length (FL)-PRMT5-MEP50 enzyme complex (Homo sapiens)

>  <MEASUREMENT UNIT>
nM

>  <EC50>
0.3

$$$$
>  <COMPOUND>
Nc1nc2cc(C[C@@H]3CC[C@@]4(O)[C@@H]3O[C@@H](n3ccc5c(N)ncnc53)[C@@H]4O)ccc2cc1C(F)(F)F

>  <TESTED ON>
Full-length (FL)-PRMT5-MEP50 enzyme complex (Homo sapiens)

>  <MEASUREMENT UNIT>
nM

>  <EC50>
0.9

$$$$
>  <COMPOUND>
Cc1cn([C@@H]2O[C@@H]3[C@@H](Oc4ccc5cc(F)c(N)nc5c4)CC[C@]3(O)[C@H]2O)c2ncnc(N)c12 [Example 65, 2,2,2-trifluoroacetate]

>  <TESTED ON>
Full-length (FL)-PRMT5-MEP50 enzyme complex (Homo sapiens)

>  <MEASUREMENT UNIT>
nM

>  <EC50>
0.2

$$$$
>  <COMPOUND>
Cc1ncnc2c1ccn2[C@@H]1O[C@@H]2[C@@H](Cc3ccc4cc(Br)c(N)nc4c3)OC[C@]2(O)[C@H]1O

>  <TESTED ON>
Full-length (FL)-PRMT5-MEP50 enzyme complex (Homo sapiens)

>  <MEASUREMENT UNIT>
nM

>  <EC50>
3.5

$$$$
>  <COMPOUND>
Cc1ncnc2c1ccn2[C@@H]1O[C@@H]2[C@@H](Nc3ccc4cc(F)c(N)nc4c3)CC[C@]2(O)[C@H]1O

>  <TESTED ON>
Full-length (FL)-PRMT5-MEP50 enzyme complex (Homo sapiens)

>  <MEASUREMENT UNIT>
nM

>  <EC50>
0.6

$$$$
